inhibition at 24 h, 20 µM for assorted compounds
- ASSAY_METHOD_TEXT: Cytotoxicity against human 293T cells expressing Gluc assessed as inhibition of cell proliferation at 20 uM after 24 hrs by CCK8 assay relative to control
- Format: cell-based
- MEASUREMENT_SETUP: 293T (HEK-293T) cells expressing Gluc
Form entry: value (%) — number only.

Here's what some known entries look like.
| COMPOUND_STRING | OBSERVABLE | VALUE_UNIT | OBSERVED_VALUE |
| --- | --- | --- | --- |
| C[C@H]1O[C@@H](O[C@H]2CC[C@@]3(C)[C@@H](CC[C@]4(C)[C@@H]3C=C[C@]35OC[C@@]6(CCC(C)(C)C[C@H]63)C(=O)C[C@]54C)[C@]2(C)CO)[C@H](O)[C@@H](O[C@@H]2O[C@H](CO)[C@@H](O)[C@H](O)[C@H]2O)[C@H]1O | inhibition at 24 h, 20 µM | % | 49.7 |
| C[C@H]1O[C@@H](O[C@H]2CC[C@]3(C)C4=CC=C5[C@@H]6CC(C)(C)CC[C@]6(CO)[C@@H](O)C[C@@]5(C)[C@]4(C)CC[C@H]3[C@]2(C)CO)[C@H](O)[C@@H](O[C@@H]2O[C@H](CO)[C@@H](O)[C@H](O)[C@H]2O)[C@H]1O | inhibition at 24 h, 20 µM | % | 1.39 |
| C[C@H]1O[C@@H](O[C@H]2CC[C@@]3(C)[C@@H](CC[C@]4(C)[C@@H]3C=CC3=C5CC(C)(C)CC[C@]5(CO)C(=O)C[C@]34C)[C@]2(C)CO)[C@H](O)[C@@H](O[C@@H]2O[C@H](CO)[C@@H](O)[C@H](O)[C@H]2O)[C@H]1O | inhibition at 24 h, 20 µM | % | 9 |
| CO[C@@H]1C=C2[C@@H]3CC(C)(C)CC[C@]3(CO)[C@@H](O)C[C@@]2(C)[C@]2(C)CC[C@H]3C(C)(C)[C@@H](O[C@@H]4O[C@H](CO[C@@H]5O[C@H](CO)[C@@H](O)[C@H](O)[C@H]5O)[C@@H](O[C@@H]5O[C@@H](C)[C@H](O)[C@@H](O)[C@H]5O)[C@H](O)[C@H]4O)CC[C@]3(C)[C@@H]12 | inhibition at 24 h, 20 µM | % | 0 |
| C[C@H]1O[C@@H](O[C@H]2CC[C@]3(C)C4=CC=C5[C@@H]6CC(C)(C)CC[C@]6(CO)[C@H](O)C[C@@]5(C)[C@]4(C)CC[C@H]3[C@]2(C)CO)[C@H](O)[C@@H](O[C@@H]2O[C@H](CO)[C@@H](O)[C@H](O)[C@H]2O)[C@H]1O | inhibition at 24 h, 20 µM | % | 1.39 |

Ask: Provide one value: measured inhibition at 24 h, 20 µM of C/C=C/C(=O)OC[C@H]1O[C@@H](O[C@H]2[C@@H](O)[C@@H](C)O[C@@H](O[C@H]3CC[C@@]4(C)[C@@H](CC[C@]5(C)[C@@H]4C=C[C@]46OC[C@@]7(CCC(C)(C)C[C@H]74)[C@@H](O)C[C@]65C)[C@]3(C)CO)[C@@H]2O)[C@H](O)[C@@H](O)[C@@H]1O
Result: 44.2

Ask: Provide one value: measured inhibition at 24 h, 20 µM of C[C@@H]1O[C@@H](O[C@H]2[C@H](O)[C@@H](O)[C@H](O[C@H]3CC[C@]4(C)[C@H]5C=CC6=C7CC(C)(C)CC[C@]7(CO)[C@@H](O)[C@H](O)[C@@]6(C)[C@]5(C)CC[C@H]4C3(C)C)O[C@@H]2CO[C@@H]2O[C@H](CO)[C@@H](O)[C@H](O)[C@H]2O)[C@H](O)[C@H](O)[C@H]1O
Result: 5.14

Provenance of the data: ChEMBL document CHEMBL4007499
